meta.source: patent EP0413433A1

Subject of test: α2-Adrenoceptor (Homo sapiens)
Sequence (P08913 whole entry): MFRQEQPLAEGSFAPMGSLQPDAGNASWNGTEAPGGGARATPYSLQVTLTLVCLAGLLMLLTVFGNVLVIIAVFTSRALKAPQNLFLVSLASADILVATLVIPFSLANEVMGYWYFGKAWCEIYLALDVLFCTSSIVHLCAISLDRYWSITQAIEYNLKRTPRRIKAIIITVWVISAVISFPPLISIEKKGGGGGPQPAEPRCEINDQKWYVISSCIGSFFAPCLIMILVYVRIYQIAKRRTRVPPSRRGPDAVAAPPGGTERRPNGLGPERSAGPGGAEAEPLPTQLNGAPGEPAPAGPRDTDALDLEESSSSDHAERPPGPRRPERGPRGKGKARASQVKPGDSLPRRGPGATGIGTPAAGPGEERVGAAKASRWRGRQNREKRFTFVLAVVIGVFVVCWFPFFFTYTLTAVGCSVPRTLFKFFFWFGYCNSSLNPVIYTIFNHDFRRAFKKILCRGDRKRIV
pKi: −log10 of the molar value.

>  <Molecule>
C[C@@H]1c2ccccc2CN1CC1=NCCN1 [Example 1]

>  <Subject of test>
α2-Adrenoceptor (Homo sapiens)

>  <pKi>
9.52

$$$$
